Consider the following binders; for each one, report its pKd.
target desc: T1, FS315 (R&D Systems) (human, UniProt P19883 30-344)
T1 construct: Bought protein (R&D Systems); also called native follistatin; native FS315
T1 sequence (P19883 30-344): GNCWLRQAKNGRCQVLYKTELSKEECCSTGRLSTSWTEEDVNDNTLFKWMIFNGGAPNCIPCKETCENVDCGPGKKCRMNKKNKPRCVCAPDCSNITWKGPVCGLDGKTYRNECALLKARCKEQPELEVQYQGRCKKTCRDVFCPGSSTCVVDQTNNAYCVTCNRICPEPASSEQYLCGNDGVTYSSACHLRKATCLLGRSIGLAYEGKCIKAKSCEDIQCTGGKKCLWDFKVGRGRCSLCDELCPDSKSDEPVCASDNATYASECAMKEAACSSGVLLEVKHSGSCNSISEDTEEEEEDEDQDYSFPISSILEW
assay comment: Biacore SPR, 25 C; FS315 immobilized on CM5 chip, ligand as soluble analyte
Numbers only, as −log10 of the molar value.

Examples with answers:
- BMP-7 (ligand, UniProt P18075 293-431, looked up) STGSKQRSQNRSKTPKNQEALRMANVAENSSSDQRQACKKHELYVSFRDLGWQDWIIAPEGYAAYYCEGECAFPLNSYMNATNHAIVQTLVHFINPETVPKPCCAPTQLNAISVLYFDDSSNVILKKYRNMVVRACGCH: 7.42
- BMP-2 (ligand, UniProt P12643 283-396, looked up) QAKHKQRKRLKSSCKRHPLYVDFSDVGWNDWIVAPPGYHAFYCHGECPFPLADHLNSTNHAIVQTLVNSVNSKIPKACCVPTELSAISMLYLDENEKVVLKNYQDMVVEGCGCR: 6.36
- BMP-4 (ligand, UniProt P12644 293-408, looked up) SPKHHSQRARKKNKNCRRHSLYVDFSDVGWNDWIVAPPGYQAFYCHGDCPFPLADHLNSTNHAIVQTLVNSVNSSIPKACCVPTELSAISMLYLDEYDKVVLKNYQEMVVEGCGCR: 7.85

Prompt line: State the recorded pKd for this entry: BMP-6 (ligand, UniProt P22004 382-513, looked up) QQSRNRSTQSQDVARVSSASDYNSSELKTACRKHELYVSFQDLGWQDWIIAPKGYAANYCDGECSFPLNAHMNATNHAIVQTLVHLMNPEYVPKPCCAPTKLNAISVLYFDDNSNVILKKYRNMVVRACGCH
Response line: 9.44
